target_of_assay: tyrosinase (Agaricus bisporus, UniProt C7FF04)
Construct: purchased Beijing Solarbio Biotechnology Co., Ltd
protocol: Enzyme inhibition kinetic assay (enzyme concentration vs. rate, Lineweaver–Burk plots)
Format: biochemical, mushroom
experimental_setup: Inhibition Constant KI (mM), YYP 0.5 mM; enzyme–inhibitor complex
Peptide text beside a SMILES is read from it.
measurement_type: Ki (mM)
Answers are plain numbers, in mM.

Exercise: Checklist item: Ki tested on tyrosinase (Agaricus bisporus, UniProt C7FF04), entry N[C@@H](Cc1ccc(O)cc1)C(=O)N[C@@H](Cc1ccc(O)cc1)C(=O)N1CCC[C@H]1C(=O)O [YYP, Tyr-Tyr-Pro] (H-Tyr-Tyr-Pro-OH; N-terminus and C-terminus assumed) , value?
Key: 0.245
